assay: NCI Yeast Anticancer Drug Screen. Data for the bub3 strain (AID 167); settings: S. cerevisiae bub3 mutant strain, at 50.0 µM (retest, dose inferred, filed as 5.0), hits give high values
Compounds without any hit were thinned out: in the full panel of roughly 79,000, 15% have a hit.
propertyLabel: growth inhibition (%)
The reply should contain only the number, in %.

stdin: Recorded growth inhibition for O=[N+]([O-])c1c(Cl)nc2ccccn12 , please?
stdout: 14

stdin: Recorded growth inhibition for O=C1CSC(=S)N1c1ccc(F)c(F)c1 , please?
stdout: 92

stdin: Recorded growth inhibition for CCC(=O)OCOc1ccc(/C=C2\CCC(CN(C)C)C2=O)cc1 (stereo unspecified) , please?
stdout: 98

stdin: Recorded growth inhibition for N#CC(=C1C=CC(=NOC(=O)Nc2cccc3ccccc23)C=C1)c1ccccc1 , please?
stdout: 99

stdin: Recorded growth inhibition for CCCCCCC(CCCCCCCCCCC(=O)OCC(CC)CC)OC(=O)CC (stereo unspecified) , please?
stdout: -5

stdin: Recorded growth inhibition for CC1(c2ccccc2)c2ccccc2N(c2ccccc2)C(=O)C1O (stereo unspecified) , please?
stdout: 99

stdin: Recorded growth inhibition for C=C1C(=O)OC2C[C@@]3(C)CCC[C@H](C)C3=CC12 (stereo partly specified) (tested in a mixture with another compound) , please?
stdout: 97

stdin: Recorded growth inhibition for OC1(C2C=CC=C2)c2ccccc2C=Cc2ccccc21 , please?
stdout: -85

stdin: Recorded growth inhibition for CCCCCCCCCCCCCC1=NCC(c2ccc3ccccc3c2)O1 (stereo unspecified) , please?
stdout: -6

stdin: Recorded growth inhibition for CC(C)(Cc1nocc1C(C)(C)CC#N)c1cc(CC(C)(C)C2(C)OCCO2)no1 , please?
stdout: -6

stdin: Recorded growth inhibition for Oc1ccc(N=Nc2ccccn2)c(O)c1 , please?
stdout: 96

stdin: Recorded growth inhibition for CCCCCCCc1c(Cl)nc(Cl)nc1Cl , please?
stdout: 99

stdin: Recorded growth inhibition for Oc1ccccc1C=Nc1ccccc1O , please?
stdout: 65

stdin: Recorded growth inhibition for CC1=CC(C)(C)Nc2ccc(CSc3ccccc3)cc21 , please?
stdout: 6

stdin: Recorded growth inhibition for Cc1c(N)nc(C(CC(N)=O)NCC(N)C(N)=O)nc1C(=O)NC(C(=O)NC(C)C(O)C(C)C(=O)NC(C(=O)NCCc1nc(-c2nc(C(=O)NCCCNCCCCN)cs2)cs1)C(C)O)C(OC1OC(CO)C(O)C(O)C1OC1OC(CO)C(O)C(OC(N)=O)C1O)c1cnc[nH]1 (stereo unspecified) , please?
stdout: 98

stdin: Recorded growth inhibition for c1ccc(-c2[nH]c3ccccc3c2-c2ccccn2)cc1 , please?
stdout: 2

stdin: Recorded growth inhibition for Nc1ccc(Cc2ccc(Br)cc2)cc1 , please?
stdout: 98

stdin: Recorded growth inhibition for CC(=O)Nc1nc([N+](=O)[O-])c(C(C)C)s1 , please?
stdout: 9

stdin: Recorded growth inhibition for COC(=O)C(CC(C)=O)CS(=O)(=O)CC(=O)C(=O)Nc1cccc([N+](=O)[O-])c1 (stereo unspecified) , please?
stdout: 98

stdin: Recorded growth inhibition for COC(=O)C(=O)C(C(=O)C(c1ccccc1)c1ccccc1)c1nc2n(c1O)/C(=N/C(=O)Nc1ccc(Cl)cc1)N=N2 (stereo unspecified) , please?
stdout: 35

stdin: Recorded growth inhibition for Cc1nnc(S(=O)(=O)c2ccc(N=Nc3c(N)nc(N)nc3N)cc2)s1 , please?
stdout: 7

stdin: Recorded growth inhibition for CCN(CC)CCNc1nc(NCCN(CC)CC)c2nc(-c3ccccc3)c(-c3ccccc3)nc2n1 , please?
stdout: 98

stdin: Recorded growth inhibition for OC1CN(Cc2ccccc2)C[C@@H]1O (stereo partly specified) , please?
stdout: 99

stdin: Recorded growth inhibition for Nc1ccccc1Oc1ccc(Cl)cc1Cl , please?
stdout: 95

stdin: Recorded growth inhibition for O=C1NC(=O)c2cc([N+](=O)[O-])ccc21 , please?
stdout: 13

stdin: Recorded growth inhibition for CC1=C(C(=O)Nc2c(C)cccc2C)C(c2ccc3c(c2)OCO3)C(C(=O)Nc2c(C)cccc2C)=C(C)N1 , please?
stdout: 6
